Origin of measurements: ChEMBL document CHEMBL4673238

tested on: C-33-A; assay: Cytotoxicity against human C-33-A cells; format: functional, cell-based
Task for the reader: assign each of the following compounds its reported pIC50.
One number for each entry, as −log10 of the molar value.

// solved cases for pIC50 follow
CC(C)(C)c1cc(C(C)(C)C)c2oc(C(c3ccc(Cl)cc3)c3c[nH]c4ccccc34)cc2c1 (stereo not given)	4.47
Cc1[nH]c2ccccc2c1C(c1ccccc1)c1cc2cc(Cl)ccc2o1 (stereo not given)	4.41
O=[N+]([O-])c1ccc2[nH]cc(C(c3ccccc3)c3cc4ccccc4o3)c2c1 (stereo not given)	4.45
Cc1[nH]c2ccccc2c1C(c1ccc(Cl)cc1)c1cc2cc(C(C)(C)C)cc(C(C)(C)C)c2o1 (stereo not given)	4.51

# context switch: different compound, same pIC50
Data request, read-out pIC50, for CC(C)(C)c1cc(C(C)(C)C)c2oc(C(c3ccc(Cl)cc3)c3c[nH]c4ccc([N+](=O)[O-])cc34)cc2c1 (stereo not given)
4.53
